assay: NCI Yeast Anticancer Drug Screen. Data for the mec2-1 strain (AID 157); settings: S. cerevisiae mec2-1 strain, at 50.0 µM
About 79,000 compounds went through this panel and 15% of them were active in at least one assay; those are over-represented in the sample as a whole. The source made the active and inactive calls. No stated cut-off is given here; in the data, active means growth inhibition above about 70%; inactive means the rest.
// allowed return values: active, inactive

Which outcome was assigned to CCCCSCC(O)c1ccccc1 (stereo unspecified) in this test?
inactive

What is the recorded call for this molecule in the test? `COC1=C(N)C(=O)c2ccc(-c3ccccn3)nc2C1=O`
active

Recorded call for COC(=O)C(CC(=O)c1cc2c(cc1I)OCO2)Cc1cc(OC)c(OC)c(OC)c1I (stereo unspecified) ?
inactive

* * *

Readings of growth inhibition for the listed compounds
test: NCI Yeast Anticancer Drug Screen. Data for the mec2-1 strain (AID 157); conditions: S. cerevisiae mec2-1 strain, at 50.0 µM, stronger effect = higher value
Compounds without any hit were thinned out: in the full panel of roughly 79,000, 15% have a hit. Calls of active or inactive are those of the source. No stated cut-off is given here; in the data, active means growth inhibition above about 70%; inactive means the rest.

Solved cases (2 shown):
| COMPOUND | OBSERVED MEASUREMENT |
| --- | --- |
| COc1ccc(CCN2C(=O)C(=O)N(c3ccc([N+](=O)[O-])cc3)C2=O)cc1OC | 1.45% (inactive) |
| CN(C)c1ccc(C=O)cc1[N+](=O)[O-] | 6.25% (inactive) |

growth inhibition measured on `COC(=O)CCCN1C(=O)c2ccccc2C1=O` = -12.7% (inactive)

growth inhibition reported for this compound `CCOc1ccc(-n2c(O)c(N=Nc3ccccc3OC)c(=O)n(-c3ccc(OC)cc3)c2=S)cc1` : -7.9% (inactive)

* * *

experiment: NCI Yeast Anticancer Drug Screen. Data for the rad50 strain (AID 155);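 further: 0% = growth of vehicle-only cultures of the same strain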; settings: S. cerevisiae rad50 strain growth inhibition; at 50.0 µM
About 79,000 compounds went through this panel and 15% of them were active in at least one assay; those are over-represented in the sample as a whole. Active and inactive are the calls of the source. Rule as the data show it: active = growth inhibition above about 70%; inactive = the rest.
Just give me one of these, please: Y (active), N (inactive)

Study these solved cases before continuing.
| COMPOUND | ASSIGNED CLASS |
| --- | --- |
| Cc1c(Cl)cccc1NC(=O)Nc1ccccc1 | N |
| N#CN(Cc1ccccc1)Cc1ccccc1 | N |
| CCC(CC)C(=O)OCCOCCOC | N |

Next:
Could you please tell me the result logged for `O=C(O)c1ccc(N2CCOCC2)cc1` in this assay?
N

* * *

assay: NCI Yeast Anticancer Drug Screen. Data for the mlh1 rad18 strain (AID 175); settings: S. cerevisiae mlh1 rad18 strain growth inhibition; at 50.0 µM; stronger effect = higher value
This is part of a sample that, as a whole, favours compounds with a hit. Of some 79,000 tested, about 15% had one in any assay.
ATTRIBUTE MEASURED: growth inhibition (%)
Numeric only. Scale: %

| COMPOUND | ATTRIBUTE MEASURED | OBSERVED MEASUREMENT |
| --- | --- | --- |
| CN(C)S(=O)(=O)N1CCCc2ccccc21 | growth inhibition | 11 |
| O=C(Nc1ccc(Br)cc1C(F)(F)F)C(F)(F)F | growth inhibition | -16.2 |
| Nc1ncnc2c1nnn2C1C=CC(COS(N)(=O)=O)C1 (stereo not drawn) | growth inhibition | 18.6 |

What the record says about O=C1c2ccccc2C(C2N=Nc3ccccc32)c2ccccc21 (stereo not drawn) : growth inhibition is 6.2

The compound `C/C=C/[C@@]1(OC(=O)c2ccccc2)C[C@@H]2CCCC[C@@H]21` showed growth inhibition equal to 31.6

Lab note: measured growth inhibition of OC(CN(C1CCCCC1)C1CCCCC1)c1ccnc2c(Cl)cc(Cl)cc12 (stereo not drawn) was 18.4

Lab note: OC1CCCC1c1ccccc1 (stereo not drawn) gave growth inhibition of 4.45

src = PubChem BioAssay (NCI)
